Target: T1, cynomolgus monkey BDCA2 (full-length, cell surface, E73 SNP form) (cynomolgus monkey, UniProt Q8WTT0 1-213 (human entry))
T1 construct: also called cyno BDCA2; surface cynomolgus monkey BDCA2
T1 chain: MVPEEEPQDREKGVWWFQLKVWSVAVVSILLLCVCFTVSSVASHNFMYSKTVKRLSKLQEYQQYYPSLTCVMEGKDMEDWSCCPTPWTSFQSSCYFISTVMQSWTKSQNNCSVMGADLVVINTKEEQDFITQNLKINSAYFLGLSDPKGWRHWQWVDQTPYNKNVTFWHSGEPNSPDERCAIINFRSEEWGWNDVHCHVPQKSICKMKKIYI
Assay: direct binding FACS, conditioned medium on CHO cells co-expressing BDCA2 and FcεRIγ
RESULT TYPE: binding result

hu24F4 H1/L2 (antibody, V domains shown, Humanized variant, human IgG1/kappa, conditioned medium of 293E cells; also called H1 series of hu24F4) VH: EVQLVESGGGLVKPGGSLRLSCAASGFTFSTYTMSWVRQAPGKGLEWVSTISPGDSFGYYPDSVKGRFTISRDNAKNSLYLQMNSLRAEDTAVYYCARDIYYNYGAWFAYWGQGTLVTVSS VL: DIQLTQSPSSLSVSVGDRATISCKASQSVDYDGDSYMNWYQQKPGKAPKLLIYAASTLESGVPSRFSGSGSGTDFTLTISSVQPEDFATYYCQQSNEDPRTFGQGTKVEIK
no binding
hu24F4 H3/L2 (antibody, V domains shown, Humanized variant, human IgG1/kappa, conditioned medium of 293E cells; also called H3 series of hu24F4) VH: EVQLVESGGGLVKPGGSLRLSCAASGFTFSTYTMSWVRQAPGKGLEWVSTISPGDSFGYYYPDSVQGRFTISRDNAKNSLYLQMNSLRAEDTAVYYCARDIYYNYGAWFAYWGQGTLVTVSS VL: DIQLTQSPSSLSVSVGDRATISCKASQSVDYDGDSYMNWYQQKPGKAPKLLIYAASTLESGVPSRFSGSGSGTDFTLTISSVQPEDFATYYCQQSNEDPRTFGQGTKVEIK
binds
hu24F4 H0/L2 (antibody, V domains shown, Humanized variant, human IgG1/kappa, conditioned medium of 293E cells; also called H0 series of hu24F4) VH: EVQLVESGGGLVKPGGSLRLSCAASGFTFSTYTMSWVRQAPGKGLEWVSAISGSGGSTYYADSVKGRFTISRDNAKNSLYLQMNSLRAEDTAVYYCARDIYYNYGAWFAYWGQGTLVTVSS VL: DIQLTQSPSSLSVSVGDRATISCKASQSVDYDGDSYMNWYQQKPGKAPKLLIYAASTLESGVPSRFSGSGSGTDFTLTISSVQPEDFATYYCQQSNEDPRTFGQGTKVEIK
no binding
